test system: Radical scavenging activity; test: Antioxidant activity assessed as DPPH radical scavenging activity at 100 ug after 10 mins by UV-Visible spectrophotometry; format: functional
measurement_type: Activity (%)

compound="CC(=O)N1N=C(c2ccc(C)nc2)OC1c1ccc(Cl)cc1 (stereo unspecified)" reported_value=49.2
compound=Cc1cc(C(C)(C)C)c(O)c(C(C)(C)C)c1 reported_value=92.4
compound="CC(=O)N1N=C(c2ccc(C)nc2)OC1(C)c1sccc1Br (stereo unspecified)" reported_value=44.2
compound="COc1ccc(C2OC(c3ccc(C)nc3)=NN2C(C)=O)c(OC)c1 (stereo unspecified)" reported_value=24.3
compound="CC(=O)N1N=C(c2ccc(C)nc2)OC1(C)c1ccc([N+](=O)[O-])cc1 (stereo unspecified)" reported_value=52.4
compound="CC(=O)N1N=C(c2ccc(C)nc2)OC1c1cccs1 (stereo unspecified)" reported_value=12
compound="CC(=O)N1N=C(c2ccc(C)nc2)OC1c1ccc(Cl)cc1Cl (stereo unspecified)" reported_value=62.3
compound="CC(=O)N1N=C(c2ccc(C)nc2)OC1(C)c1ccc(-c2ccccc2)cc1 (stereo unspecified)" reported_value=47.7
compound="CC(=O)N1N=C(c2ccc(C)nc2)OC1c1cccc(Cl)c1F (stereo unspecified)" reported_value=37.3
compound="CC(=O)c1ccc(C2(C)OC(c3ccc(C)nc3)=NN2C(C)=O)cc1 (stereo unspecified)" reported_value=42.3
compound="CC(=O)N1N=C(c2ccc(C)nc2)OC1c1ccc(Br)cc1 (stereo unspecified)" reported_value=65.5

---

test system: Radical scavenging activity; assay: Antioxidant activity assessed as DPPH radical scavenging activity at 100 ug after 10 mins by UV-Visible spectrophotometry; format: functional
Recorded Activity, one value per entry.
measurement_type: Activity (%)

compound="CC(=O)N1N=C(c2ccc(C)nc2)OC1c1ccc(O)c(O)c1 (centres undefined)" experimental_system="Radical scavenging activity" measurement_type=Activity reported_value=13.3
compound="COc1ccc2cc(C3OC(c4ccc(C)nc4)=NN3C(C)=O)ccc2c1 (centres undefined)" experimental_system="Radical scavenging activity" measurement_type=Activity reported_value=27.5
compound="CC(=O)N1N=C(c2ccc(C)nc2)OC1(C)c1cccc(Br)c1 (centres undefined)" experimental_system="Radical scavenging activity" measurement_type=Activity reported_value=32.9
compound="CC(=O)N1N=C(c2ccc(C)nc2)OC1c1ccc(-c2ccccc2)cc1 (centres undefined)" experimental_system="Radical scavenging activity" measurement_type=Activity reported_value=15.6
